- test-name: Average particle diameter of peptide/DNA nanoparticles by ZetaPALS dynamic light scattering
- Format: physicochemical
- test-context: GFP, PEG
Ends that are not written are not given here.
assay-readout: Average Particle Diameter (via ZETA Pals particle size analysis)

substance	result
(H-Orn-His-Orn-His-His-Orn-His-His-Orn-His-His-Orn-His-His-Orn-His-His-Orn-His-Orn)4-Lys-Lys-Lys-His-His-His-His-Asn-His-His-His-His-OH [Peptide 2595]	101.3 nm (GFP, PEG)
(H-Lys-His-Lys-His-His-Lys-His-Lys-His-His-Lys-His-Lys-His-His-Lys-His-Lys-His-Lys)4-Lys-Lys-Lys-His-His-His-His-Asn-His-His-His-His-OH (chain 1 H-KHKHHKHKHHKHKHHKHKHK; chain 2 KKKHHHHNHHHH-OH; also: four copies of chain 1 branched on core chain 2, attachment points not given here) [Peptide 2597, 9:11 Lys:His]	90.9 nm (GFP, PEG)
(H-Lys-His-Lys-His-Lys-His-Lys-His-Lys-His-Lys-His-Lys-His-Lys-His-Lys-His-His-Lys)4-Lys-Lys-Lys-His-His-His-His-Asn-His-His-His-His-OH (chain 1 H-KHKHKHKHKHKHKHKHKHHK; chain 2 KKKHHHHNHHHH-OH; also: four copies of chain 1 branched on core chain 2, attachment points not given here) [Peptide 2596, 1:1 Lys:His]	124.1 nm (GFP, PEG)

Please find the next substance below.
According to the records, this substance (H-Lys-His-Lys-His-His-Lys-His-His-Lys-His-His-Lys-His-His-Lys-His-His-Lys-His-Lys)4-Lys-Lys-Lys-His-His-His-His-Asn-His-His-His-His-OH (chain 1 H-KHKHHKHHKHHKHHKHHKHK; chain 2 KKKHHHHNHHHH-OH; also: four copies of chain 1 branched on core chain 2, attachment points not given here) [Peptide 2070, original peptide HK, 2:3 Lys:His, 4 branches] displays Average Particle Diameter (via ZETA Pals particle size analysis) of 127.4 nm (GFP, PEG)

###

- test-name: Average particle diameter of peptide/DNA nanoparticles by ZetaPALS dynamic light scattering
- Assay type: physicochemical
- test-context: GFP, non-PEG
Ends that are not written are not given here.
Let's look at some substances and their measured Average Particle Diameter (via ZETA Pals particle size analysis).

The examples below pair each entry with its known result.
substance	result
(H-Lys-His-Lys-His-His-Lys-His-His-Lys-His-His-Lys-His-His-Lys-His-His-Lys-His-Lys)4-Lys-Lys-Lys-His-His-His-His-Asn-His-His-His-His-OH (chain 1 H-KHKHHKHHKHHKHHKHHKHK; chain 2 KKKHHHHNHHHH-OH; also: four copies of chain 1 branched on core chain 2, attachment points not given here) [Peptide 2070, original peptide HK, 2:3 Lys:His, 4 branches]	66.0 nm (GFP, non-PEG)
(H-Lys-His-Lys-His-His-Lys-His-Lys-His-His-Lys-His-Lys-His-His-Lys-His-Lys-His-Lys)4-Lys-Lys-Lys-His-His-His-His-Asn-His-His-His-His-OH (chain 1 H-KHKHHKHKHHKHKHHKHKHK; chain 2 KKKHHHHNHHHH-OH; also: four copies of chain 1 branched on core chain 2, attachment points not given here) [Peptide 2597, 9:11 Lys:His]	54.7 nm (GFP, non-PEG)
(H-Lys-His-Lys-His-Lys-His-Lys-His-Lys-His-Lys-His-Lys-His-Lys-His-Lys-His-His-Lys)4-Lys-Lys-Lys-His-His-His-His-Asn-His-His-His-His-OH (chain 1 H-KHKHKHKHKHKHKHKHKHHK; chain 2 KKKHHHHNHHHH-OH; also: four copies of chain 1 branched on core chain 2, attachment points not given here) [Peptide 2596, 1:1 Lys:His]	82.1 nm (GFP, non-PEG)

Please find the next substance below.
According to the records, this substance (H-Orn-His-Orn-His-His-Orn-His-His-Orn-His-His-Orn-His-His-Orn-His-His-Orn-His-Orn)4-Lys-Lys-Lys-His-His-His-His-Asn-His-His-His-His-OH [Peptide 2595] displays Average Particle Diameter (via ZETA Pals particle size analysis) of 73.7 nm (GFP, non-PEG)
